Provide the reported Efficacy (ELK-luciferase, relative to wild-type FGF21) of each item.
molecular target: β-Klotho overexpressed in recombinant human 293T kidney cells; assay: cell-based or functional assay
The reply should contain only the number, in %.

// Efficacy (ELK-luciferase, relative to wild-type FGF21) value for FGF21 truncation mutant 7-181 (ligand) SPLLQFGGQVRQRYLYTDDAQQTEAHLEIREDGTVGGAADQSPESLLQLKALKPGVIQILGVKTSRFLCQRPDGALYGSLHFDPEACSFRELLLEDGYNVYQSEAHGLPLHLPGNKSPHRDPAPRGPARFLPLPGLPPAPPEPPGILAPQPPDVGSSDPLSMVGPSQGRSPSYAS : 74.2

// Efficacy (ELK-luciferase, relative to wild-type FGF21) value for FGF21 truncation mutant 2-181 (ligand) PIPDSSPLLQFGGQVRQRYLYTDDAQQTEAHLEIREDGTVGGAADQSPESLLQLKALKPGVIQILGVKTSRFLCQRPDGALYGSLHFDPEACSFRELLLEDGYNVYQSEAHGLPLHLPGNKSPHRDPAPRGPARFLPLPGLPPAPPEPPGILAPQPPDVGSSDPLSMVGPSQGRSPSYAS : 112

// Efficacy (ELK-luciferase, relative to wild-type FGF21) value for FGF21 truncation mutant 1-169 (ligand) HPIPDSSPLLQFGGQVRQRYLYTDDAQQTEAHLEIREDGTVGGAADQSPESLLQLKALKPGVIQILGVKTSRFLCQRPDGALYGSLHFDPEACSFRELLLEDGYNVYQSEAHGLPLHLPGNKSPHRDPAPRGPARFLPLPGLPPAPPEPPGILAPQPPDVGSSDPLSMV : 84.9

Taken from patent US20100285131A1.
